- assaySystem: T1, human IGF2^1-67 (mature insulin-like growth factor 2) (human, UniProt P01344 25-91, biotinylated (site not stated) where immobilised on the chip (Tables 1-4))
- T1 construct: mature; also called mature IGF2; biotinylated IGF2
- T1 sequence (P01344 25-91): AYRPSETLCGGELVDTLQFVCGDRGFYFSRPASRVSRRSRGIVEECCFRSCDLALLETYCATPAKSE
- assayProtocol: SPR steady state, biotin-IGF2 on chip, pH 7.4
measuredMetric: Kd (nM)

Worked set:
>>> testresult("domain 11^AB5 Q1569R (receptor, See m5) MKSNEHDDCQVTNPSTGHLFDLSSLSGRAGFTAAYAKGWGVYMSICGENENCPPGVGACFGRTRISVGKANKRLRYVDQVLQLVYKDGSPCPSKSGLSYKSVISFVCRPEAGPTNRPMLISLDKQTCTLFFSWHTPLACEQATECSV")
3.22
>>> testresult("domain 11^AB3 Q1569R P1597H S1602H (receptor, See m5) MKSNEHDDCQVTNPSTGHLFDLSSLSGRAGFTAAYSKSGVVYMSICGENENCPPGVGACFGRTRISVGKANKRLRYVDQVLQLVYKDGSHCPSKHGLSYKSVISFVCRPEAGPTNRPMLISLDKQTCTLFFSWHTPLACEQATECSV")
1.53

a = domain 11^AB3 P1597K (receptor, See m5) MKSNEHDDCQVTNPSTGHLFDLSSLSGRAGFTAAYSKSGVVYMSICGENENCPPGVGACFGQTRISVGKANKRLRYVDQVLQLVYKDGSKCPSKSGLSYKSVISFVCRPEAGPTNRPMLISLDKQTCTLFFSWHTPLACEQATECSV
b = domain 11^AB3 Q1569R P1597H (receptor, See m5) MKSNEHDDCQVTNPSTGHLFDLSSLSGRAGFTAAYSKSGVVYMSICGENENCPPGVGACFGRTRISVGKANKRLRYVDQVLQLVYKDGSHCPSKSGLSYKSVISFVCRPEAGPTNRPMLISLDKQTCTLFFSWHTPLACEQATECSV
I need your help: which of the pair a , b has higher Kd? Please identify the chosen entry by its label.
a
(a: 3.59 nM, b: 1.73 nM)
